Data credit: patent US20240270821A1

Target entity: human GcgR (Homo sapiens)
Sequence (P47871 26-477): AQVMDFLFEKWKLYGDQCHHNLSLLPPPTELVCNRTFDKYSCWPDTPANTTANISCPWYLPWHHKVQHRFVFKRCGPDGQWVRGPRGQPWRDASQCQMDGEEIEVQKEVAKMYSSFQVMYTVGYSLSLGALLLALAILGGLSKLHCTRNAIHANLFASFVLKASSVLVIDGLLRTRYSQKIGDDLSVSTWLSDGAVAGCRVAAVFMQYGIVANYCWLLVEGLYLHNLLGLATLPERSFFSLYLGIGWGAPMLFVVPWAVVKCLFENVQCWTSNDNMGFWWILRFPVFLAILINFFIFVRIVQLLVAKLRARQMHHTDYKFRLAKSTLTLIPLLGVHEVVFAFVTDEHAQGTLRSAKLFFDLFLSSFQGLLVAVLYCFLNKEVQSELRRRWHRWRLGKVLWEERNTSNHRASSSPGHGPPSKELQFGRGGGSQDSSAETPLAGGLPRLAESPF
Test method notes: Functional cAMP activity in the presence of 1% HSA
Type: cell-based
Measurement parameters: read-out: cAMP Rel EC50, hGcgR
pEC50: −log10 of the molar value. Starred links: 1 amine or outer side, 2 acyl side, 3 side chain; linkers in the order of their positions; H or OH if unused. Non-standard residues stand in square brackets, D forms with d. Groups on a side chain read outwards from the residue. *: point of attachment. C20 diacid = O=C(O)CCCCCCCCCCCCCCCCCCC(=O)*; C18 diacid = O=C(O)CCCCCCCCCCCCCCCCC(=O)*; αMePhe(2-F) = C[C@](N)(Cc1ccccc1F)C(=O)O; γGlu = O=C(O)[C@H](CCC(=O)[*:2])N[*:1]; αMe4Pal = C[C@](N)(Cc1ccncc1)C(=O)O; 4Pal = N[C@@H](Cc1ccncc1)C(=O)O; αMeL = CC(C)C[C@](C)(N)C(=O)O; Orn = NCCC[C@H](N)C(=O)O; AEEA = NCCOCCOCC(=O)O; Aib = CC(C)(N)C(=O)O
Each record here notes measured pEC50.

Substance | pEC50
H-Y[Aib]QGTFTSD[4Pal]S[Orn][αMeL]LD[Orn]K([γGlu-γGlu-C18 diacid])AQ[αMe4Pal]AFIEYLIAGGPSSGEPPPSGTE-NH2 [Example 984] | 6.39
H-Y[Aib]QGT[αMePhe(2-F)]TSD[4Pal]SILLDKQAQK([AEEA-AEEA-γGlu-C20 diacid])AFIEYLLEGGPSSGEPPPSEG-NH2 [Example 347] | 5.44
H-Y[Aib]QGTFTSD[4Pal]SR[αMeL]LDKK([AEEA-γGlu-C18 diacid])AQ[αMe4Pal]AFIE[αMe4Pal]LIEGGPSSGAPPPSGSEE-NH2 [Example 956] | 6.39
